- SYSTEM TESTED: Man(a1-3)[Man(a1-6)]Man(a1-6)[Man(a1-3)]Man(b1-4)GlcNAc(b1-4)GlcNAc
- ASSAY METHOD TEXT: glycan array binding signal (z-score within array); higher = stronger binding
- EXPERIMENTAL CONDITIONS: glycan notation: IUPAC condensed, linker removed
Only a selection was taken, and the strongest signals are over-represented in it overall.
MEASURED PROPERTY: glycan array binding signal (z-score)

>  <BINDER>
CVNH3T (Magnaporthe grisea) (protein) GSHIGPYGNYAGNFSGSSRDICLDGARLRAECRRGDGGYSTSVIDLNRYLSNDNGHFRWVSGGGGGGGTATVTVQQGDTLRDIGRRFDCDFHEIARRNNIQNEDLIYPGQVLQVPTKGGSGGGAGNFWDSARDVRLVDGGKVLEAELRYSGGWNRSRIYLDEHIGNRNGELIHC

>  <RESULT>
-0.23

$$$$
